molecular target: TNFα (Homo sapiens, UniProt P01375); test: TNF-Induced HEK-Blue Assay; format: cell-based; conditions: HEK-Blue-CD40L cells, NF-kB-driven secreted alkaline phosphatase reporter; TNFα 0.5 ng/ml; 18 h; read-out: TNF induced HEK-Blue assay IC50 value
Sequence (P01375 77-233 limits assumed): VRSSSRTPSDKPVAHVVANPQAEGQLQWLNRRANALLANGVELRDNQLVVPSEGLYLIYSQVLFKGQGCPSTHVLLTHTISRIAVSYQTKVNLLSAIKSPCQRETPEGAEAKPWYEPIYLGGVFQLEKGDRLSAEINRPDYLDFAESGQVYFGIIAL
Positions of bridges follow the written chain, without caps; N, C: chain ends. Non-standard residues stand in square brackets, D forms with d. Residues, ends and D or L forms follow the SMILES beside them. Bip(4'-NHAc) = CC(=O)Nc1ccc(-c2ccc(C[C@H](N)C(=O)O)cc2)cc1; Phe(4-(4-pyridyl)) = N[C@@H](Cc1ccc(-c2ccncc2)cc1)C(=O)O; Ala(morpholin-4-yl) = N[C@@H](CN1CCOCC1)C(=O)O; Bip = N[C@@H](Cc1ccc(-c2ccccc2)cc1)C(=O)O; Ala(2-furyl) = N[C@@H](Cc1ccco1)C(=O)O; Phe(4-Me) = Cc1ccc(C[C@H](N)C(=O)O)cc1; Bta = N[C@@H](Cc1csc2ccccc12)C(=O)O; 2Pal = N[C@@H](Cc1ccccn1)C(=O)O; 4Pal = N[C@@H](Cc1ccncc1)C(=O)O; Cha = N[C@@H](CC1CCCCC1)C(=O)O; Sar = CNCC(=O)O
endpointName: IC50

molecule: CC(C)[C@@H]1NC(=O)[C@H](CCCNC(=N)N)NC(=O)[C@H](C(C)C)NC(=O)[C@@H]2CCCN2C(=O)[C@H](C(C)C)NC(=O)[C@H](CCCNC(=N)N)NC(=O)[C@H](CC(=O)O)NC(=O)[C@@H]2CCCN2C(=O)CN(C)C(=O)[C@H](Cc2ccc(-c3ccncc3)cc2)NC(=O)[C@H](Cc2ccc(-c3ccccc3)cc2)NC(=O)[C@H](CN2CCOCC2)NC(=O)CSC[C@@H](C(=O)NCC(N)=O)NC1=O [Example 91] ({CH2CO}-[Ala(morpholin-4-yl)][Bip][Phe(4-(4-pyridyl))][Sar]PDRVPVRVCG-NH2; thioether N-13)
endpointName: IC50
measured: 0.2 to 2 µM
//
molecule: CC(C)C[C@@H]1NC(=O)[C@H](CCCNC(=N)N)NC(=O)[C@H](C(C)C)NC(=O)[C@@H]2CCCN2C(=O)[C@H](C(C)C)NC(=O)[C@H](CCCNC(=N)N)NC(=O)[C@H](CC(=O)O)NC(=O)[C@@H]2CCCN2C(=O)CN(C)C(=O)[C@H](Cc2ccc(-c3ccccc3)cc2)NC(=O)[C@H](Cc2ccc(-c3ccccc3)cc2)NC(=O)[C@H](CN2CCOCC2)NC(=O)CSC[C@@H](C(=O)NCC(N)=O)NC1=O [Example 32] ({CH2CO}-[Ala(morpholin-4-yl)][Bip][Bip][Sar]PDRVPVRLCG-NH2; thioether N-13)
endpointName: IC50
measured: 0.05 to 0.2 µM
//
molecule: CC(C)C[C@@H]1NC(=O)[C@H](Cc2csc3ccccc23)NC(=O)[C@H](C(C)C)NC(=O)[C@@H]2CCCN2C(=O)[C@H](C(C)C)NC(=O)[C@@H](CCCNC(=N)N)NC(=O)[C@H](CC(=O)O)NC(=O)[C@H](Cc2ccc(O)cc2)NC(=O)CN(C)C(=O)[C@H](Cc2ccc(-c3ccccc3)cc2)NC(=O)[C@H](Cc2ccc(-c3ccccc3)cc2)NC(=O)[C@H](CN2CCOCC2)NC(=O)CSC[C@@H](C(=O)NCC(N)=O)NC1=O [Example 158] ({CH2CO}-[Ala(morpholin-4-yl)][Bip][Bip][Sar]YD[dR]VPV[Bta]LCG-NH2; thioether N-13)
endpointName: IC50
measured: 0.2 to 2 µM
//
molecule: CC(C)C[C@@H]1NC(=O)[C@H](Cc2ccc(O)cc2)NC(=O)[C@H](C(C)C)NC(=O)[C@H](Cc2ccccn2)NC(=O)[C@H](C(C)C)NC(=O)[C@H](CCCNC(=N)N)NC(=O)[C@H](CC(=O)O)NC(=O)[C@H](Cc2ccc(O)cc2)NC(=O)CN(C)C(=O)[C@H](Cc2ccc(-c3ccccc3)cc2)NC(=O)[C@H](Cc2ccc(-c3ccccc3)cc2)NC(=O)[C@H](CN2CCOCC2)NC(=O)CSC[C@@H](C(=O)NCC(N)=O)NC1=O [Example 109] ({CH2CO}-[Ala(morpholin-4-yl)][Bip][Bip][Sar]YDRV[2Pal]VYLCG-NH2; thioether N-13)
endpointName: IC50
measured: 0.2 to 2 µM
//
molecule: CC(C)[C@@H]1NC(=O)[C@H](CCCNC(=N)N)NC(=O)[C@H](C(C)C)NC(=O)[C@@H]2CCCN2C(=O)[C@H](C(C)C)NC(=O)[C@H](CCCNC(=N)N)NC(=O)[C@H](CC(=O)O)NC(=O)[C@@H]2CCCN2C(=O)CN(C)C(=O)[C@H](Cc2ccc(-c3ccccc3)cc2)NC(=O)[C@H](Cc2ccncc2)NC(=O)[C@H](CN2CCOCC2)NC(=O)CSC[C@@H](C(=O)NCC(N)=O)NC1=O [Example 86] ({CH2CO}-[Ala(morpholin-4-yl)][4Pal][Bip][Sar]PDRVPVRVCG-NH2; thioether N-13)
endpointName: IC50
measured: 0.05 to 0.2 µM
//
molecule: CC(=O)Nc1ccc(-c2ccc(C[C@@H]3NC(=O)[C@H](Cc4ccc(-c5ccccc5)cc4)NC(=O)[C@H](CC4CCCCC4)NC(=O)CSC[C@@H](C(=O)NCC(N)=O)NC(=O)[C@H](CC(C)C)NC(=O)[C@H](Cc4ccco4)NC(=O)[C@H](C(C)C)NC(=O)[C@@H]4CCCN4C(=O)[C@H](C(C)C)NC(=O)[C@@H](CCCNC(=N)N)NC(=O)[C@H](CC(=O)O)NC(=O)[C@@H]4CCCN4C(=O)CN(C)C3=O)cc2)cc1 [Example 288] ({CH2CO}-[Cha][Bip][Bip(4'-NHAc)][Sar]PD[dR]VPV[Ala(2-furyl)]LCG-NH2; thioether N-13)
endpointName: IC50
measured: 0.2 to 2 µM
//
molecule: Cc1ccc(C[C@@H]2NC(=O)[C@H](C(C)C)NC(=O)[C@@H]3CCCN3C(=O)[C@H](C(C)C)NC(=O)[C@@H](CCCNC(=N)N)NC(=O)[C@H](CC(=O)O)NC(=O)[C@H](Cc3ccc(O)cc3)NC(=O)CN(C)C(=O)[C@H](Cc3ccc(-c4ccccc4)cc3)NC(=O)[C@H](Cc3ccc(-c4ccccc4)cc3)NC(=O)[C@H](CN3CCOCC3)NC(=O)CSC[C@@H](C(=O)NCC(N)=O)NC(=O)[C@H](CC(C)C)NC2=O)cc1 [Example 152] ({CH2CO}-[Ala(morpholin-4-yl)][Bip][Bip][Sar]YD[dR]VPV[Phe(4-Me)]LCG-NH2; thioether N-13)
endpointName: IC50
measured: 0.05 to 0.2 µM
//
molecule: CC(C)C[C@@H]1NC(=O)[C@H](CCCNC(=N)N)NC(=O)[C@H](C(C)C)NC(=O)CN(C)C(=O)[C@H](C(C)C)NC(=O)[C@H](CCCNC(=N)N)NC(=O)[C@H](CC(=O)O)NC(=O)[C@@H]2CCCN2C(=O)CN(C)C(=O)[C@H](Cc2ccc(-c3ccccc3)cc2)NC(=O)[C@H](Cc2ccc(-c3ccccc3)cc2)NC(=O)[C@H](Cc2ccccc2)NC(=O)CSC[C@@H](C(=O)NCC(N)=O)NC1=O [Example 16] ({CH2CO}-F[Bip][Bip][Sar]PDRV[Sar]VRLCG-NH2; thioether N-13)
endpointName: IC50
measured: 0.2 to 2 µM
